- System: Salmonella typhimurium
- procedure text: Antimutagenic activity in Salmonella Typhimurium […] assessed as inhibition of 2-aminoanthracene-induced mutation at 300 ug/plate after 72 hrs in presence of Ames S-9 fraction
- Format: functional, Salmonella enterica subsp. enterica serovar Typhimurium
endpoint: inhibition (INH) (%)
Value expressed in %; do not type the unit.

Challenge: Quick check: inhibition (INH) on Salmonella typhimurium, item O=c1c(O)c(-c2ccc(O)c(O)c2)oc2cc(O)cc(O)c12 [QUERCETIN] ?
Response given: 24

Challenge: Item C=C[C@@](C)(/C=C/c1ccc(O)cc1)CCC=C(C)C [BAKUCHIOL] with Salmonella typhimurium - inhibition (INH)?
Response given: 84

Challenge: What inhibition (INH) appears in the records for this molecule with Salmonella typhimurium? COc1cc(O)c2c(=O)c(O)c(-c3ccc(O)c(O)c3)oc2c1 [RHAMNETIN]
Response given: 0

Challenge: Observed inhibition (INH) on Salmonella typhimurium for O=c1cc(-c2ccc(O)cc2)oc2cc(O)cc(O)c12 [APIGENIN] , please.
Response given: 0

Challenge: API: value(readout= inhibition (INH), system= Salmonella typhimurium, query= CC(C)=CCc1cc(-c2coc3cc(O)ccc3c2=O)ccc1O [NEOBAVAISOFLAVONE] )
Response given: 67

Challenge: Request body: readout inhibition (INH), system Salmonella typhimurium, query CC(C)=CCc1cc2c(cc1O)O[C@H](c1ccc(O)cc1)CC2=O [BAVACHIN] . Return the value.
Response given: 98

###

Field: inhibition at 72 h, 300 ug/plate. Provide a value for each of the compounds that follow.
- procedure text: Toxicity in Salmonella Typhimurium […] at 300 ug/plate after 72 hrs by Ames assay in presence of Ames S-9 fraction
- Format: organism-based
- settings: salmonella enterica subsp. enterica serovar typhimurium, Salmonella Typhimurium T98 with S-9 fraction

Challenge: Entry under review: COc1ccc(-c2cc(=O)c3c(OC)c(OC)c(OC)c(OC)c3o2)cc1 . Reported inhibition at 72 h, 300 ug/plate?
Response given: < 20%

Challenge: If you can, please state the reported inhibition at 72 h, 300 ug/plate value of CC(C)=CCc1cc2c(cc1O)O[C@H](c1ccc(O)cc1)CC2=O .
Response given: 50%

Challenge: Fill blank: measured inhibition at 72 h, 300 ug/plate of the compound CC(C)=CCc1c(O)ccc(C(=O)/C=C/c2ccc(O)cc2)c1O is ____.
Response given: > 90%

Challenge: May I ask what inhibition at 72 h, 300 ug/plate has been recorded for COc1ccc(-c2coc3cc(O)cc(O)c3c2=O)cc1 ?
Response given: < 20%

Challenge: Item O=c1c(O)c(-c2ccc(O)c(O)c2)oc2cc(O)cc(O)c12 has what recorded inhibition at 72 h, 300 ug/plate?
Response given: 50%

Challenge: Looking for the measured inhibition at 72 h, 300 ug/plate of COc1ccc(-c2cc(=O)c3c(OC)c(OC)c(OC)c(OC)c3o2)cc1OC , can you help?
Response given: < 20%

Challenge: Recorded inhibition at 72 h, 300 ug/plate for C[C@@H]1O[C@@H](OC[C@H]2O[C@@H](Oc3c(-c4ccc(O)c(O)c4)oc4cc(O)cc(O)c4c3=O)[C@H](O)[C@@H](O)[C@@H]2O)[C@H](O)[C@H](O)[C@H]1O , please?
Response given: < 20%

Challenge: Item O=c1c(O)c(-c2ccc(O)cc2O)oc2cc(O)cc(O)c12 has what recorded inhibition at 72 h, 300 ug/plate?
Response given: < 20%

Challenge: What does the data say about its inhibition at 72 h, 300 ug/plate? Entry: COc1ccc([C@@H]2CC(=O)c3c(O)cc(O[C@@H]4O[C@H](CO[C@@H]5O[C@@H](C)[C@H](O)[C@@H](O)[C@H]5O)[C@@H](O)[C@H](O)[C@H]4O)cc3O2)cc1O
Response given: < 20%

Challenge: Recorded inhibition at 72 h, 300 ug/plate for C[C@@H]1O[C@@H](O[C@H]2[C@H](Oc3cc(O)c4c(c3)O[C@H](c3ccc(O)cc3)CC4=O)O[C@H](CO)[C@@H](O)[C@@H]2O)[C@H](O)[C@H](O)[C@H]1O , please?
Response given: < 30%

Challenge: Dear colleague, I am looking for the recorded inhibition at 72 h, 300 ug/plate of the following compound: C=C[C@@](C)(/C=C/c1ccc(O)cc1)CCC=C(C)C
Response given: < 20%

Challenge: I have this compound here, CC(C)=CCc1cc(-c2coc3cc(O)ccc3c2=O)ccc1O , and I need its recorded inhibition at 72 h, 300 ug/plate.
Response given: > 90%
